- System: LG0567-F671-PDC complex spheroids viability;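 further: spheroids exposed to compound for seven days before readout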
- assay_notes: Anticancer human tumor LG0567-F671-PDC patient-derived lung adenocarcinoma cell line growth inhibition [RAS]; active means viability on the fitted dose curve at most 10% of control; inactive means the rest
- test_conditions: second compound 1 µM; first compound 0.316 µM
- Source text: RAS pathway inhibitors in Combinations in Complex Spheroids A high-throughput screen of multi-cell type tumor spheroids was designed to identify active combinations of RAS pathway inhibitors and targeted small molecules. Complex spheroids include a stromal component modeled by human endothelial cells (HUVEC) and fibroblasts modeled by human mesenchymal stem cells (MSCs). […] Compounds. […] If the clinical Cmax for an agent had not been determined, the highest concentration tested was 10 microM. […]
Possible outcomes: T (active), F (inactive)

{"compound": "CC(Nc1ccc2c(c1)OCCn1cc(N3C(=O)OCC3C(F)F)nc1-2)C(N)=O (stereo not drawn) + C=CC(=O)N1CCN(c2nc(OCC3CCCN3C)nc3c(F)c(-c4nc(N)cc(C)c4C(F)(F)F)c(Cl)cc23)C(C)C1", "qualitative_label": "T"}
{"compound": "CC(Nc1ccc2c(c1)OCCn1cc(N3C(=O)OCC3C(F)F)nc1-2)C(N)=O (stereo not drawn) + C#Cc1c(F)ccc2cc(O)cc(-c3ncc4c(N5CC6CCC(C5)N6)nc(OCC56CCCN5CC(F)C6)nc4c3F)c12", "qualitative_label": "F"}
{"compound": "CC(C)NCC(C(=O)N1CCN(c2ncnc3c2C(C)CC3O)CC1)c1ccc(Cl)cc1 (stereo not drawn) + C#Cc1c(F)ccc2cc(O)cc(-c3ncc4c(N5CC6CCC(C5)N6)nc(OCC56CCCN5CC(F)C6)nc4c3F)c12", "qualitative_label": "F"}
